- Tested on: EKVX NSCLC
- experimental_protocol: NCI tumour cell line growth inhibition, 48 h
Where a SMILES comes first, the peptide text is derived from it. [ ]: non-standard residue; d: D form. pGlu = O=C1CC[CH](C(=O)O)N1
property_measured: TGI

[[record]]
molecule = "O=C(c1ccccc1)c1ccccc1-c1ccccc1"
property_measured = "TGI"
measured_result = "> 100 µM"

[[record]]
molecule = "Oc1c(-c2nnc(-c3ccccc3Cl)o2)sc2nnc(-c3ccccc3)c(-c3ccccc3)c12"
property_measured = "TGI"
measured_result = "32.2 µM"

[[record]]
molecule = "COc1cc(Br)c(C=Nc2cccc3cc(OC)c(OC)cc23)cc1OC"
property_measured = "TGI"
measured_result = "> 100 µM"

[[record]]
molecule = "N#C[C@@H](c1nc2ccccc2s1)c1ncccc1[N+](=O)[O-]"
property_measured = "TGI"
measured_result = "> 31.6 µM"

[[record]]
molecule = "O=[N+]([O-])C(=C(Nc1ccccc1)Nc1ccccc1)/C(Cl)=C(\\Cl)[N+](=O)[O-]"
property_measured = "TGI"
measured_result = "19.5 µM"

[[record]]
molecule = "CN(/N=C/c1cccc2cccnc12)c1ccc([N+](=O)[O-])cc1[N+](=O)[O-]"
property_measured = "TGI"
measured_result = "> 95 µM"

[[record]]
molecule = "O=C(O)c1n[nH][nH]c1=S"
property_measured = "TGI"
measured_result = "> 100 µM"

[[record]]
molecule = "COc1ccc(-c2nn(-c3cccc(Cl)c3)cc2-c2cc(-c3cccs3)[nH]c(=S)n2)cc1"
property_measured = "TGI"
measured_result = "21.7 µM"

[[record]]
molecule = "O=C(O)c1cc(CC2Cc3cc4c(cc3C2=O)CCC4)cc2c1CCC2 (stereo unspecified)"
property_measured = "TGI"
measured_result = "> 100 µM"

[[record]]
molecule = "COc1cccc(N2CCN(CC(=O)N3CCN(c4nnc(-c5ccc(Cl)cc5)c(-c5ccc(Cl)cc5)n4)CC3)CC2)c1"
property_measured = "TGI"
measured_result = "93.7 µM"

[[record]]
molecule = "Cc1ccc2c(c1)C(=O)N(N(C)C)CC(=O)N2"
property_measured = "TGI"
measured_result = "> 100 µM"

[[record]]
molecule = "COc1c2cc(C(C)(C)C)cc1Cc1cccc(c1OCc1cccc([N+](=O)[O-])c1)Cc1cc(C(C)(C)C)cc(c1OC)Cc1cccc(c1OCc1cccc([N+](=O)[O-])c1)Cc1cc(C(C)(C)C)cc(c1OC)Cc1cccc(c1OCc1cccc([N+](=O)[O-])c1)C2"
property_measured = "TGI"
measured_result = "> 50 µM"

[[record]]
molecule = "Cc1ccc2nc(Cl)c(/C=N/N3C(=O)/C(=C/c4cccc([N+](=O)[O-])c4)N=C3c3ccccc3)cc2c1"
property_measured = "TGI"
measured_result = "> 100 µM"

[[record]]
molecule = "CN(C)c1ccc(/C=C/C(=O)CC(=O)/C=C/c2ccc(N(C)C)cc2)cc1"
property_measured = "TGI"
measured_result = "> 100 µM"

[[record]]
molecule = "O=C(COc1ccc(Cl)cc1)N1N=C(c2ccc(Cl)cc2)CC1(O)c1ccccc1 (stereo unspecified)"
property_measured = "TGI"
measured_result = "91.4 µM"

[[record]]
molecule = "O=C(Oc1cccc(F)c1OC(=O)c1cccc(O)c1)c1cccc(O)c1"
property_measured = "TGI"
measured_result = "> 100 µM"

[[record]]
molecule = "CCNC(=O)C1CCCN1C(=O)C(CCCN=C(N)N)NC(=O)C(CC(C)C)NC(=O)C(CC(C)C)NC(=O)C(Cc1ccc(O)cc1)NC(=O)C(CO)NC(=O)C(Cc1c[nH]c2ccccc12)NC(=O)C(Cc1cnc[nH]1)NC(=O)C1CCC(=O)N1 (stereo unspecified) ([pGlu]HWSYLLRP-NHEt; configuration not given here)"
property_measured = "TGI"
measured_result = "> 100 µM"

[[record]]
molecule = "CC[C@H](CCCC[C@H]1CC[C@@H]2CC(=O)C[C@H]12)OC"
property_measured = "TGI"
measured_result = "> 100 µM"

[[record]]
molecule = "C/C=C(\\C)C(=O)NC1=CC[C@@]2(C)C(=CCC3C2CC[C@@]2(C)C3CC[C@@H]2C(C)N(C)C)C1=O (stereo partly specified)"
property_measured = "TGI"
measured_result = "51.8 µM"

[[record]]
molecule = "O=NN1C(c2ccccc2)CC(=NO)CC1c1ccccc1 (stereo unspecified)"
property_measured = "TGI"
measured_result = "> 100 µM"

[[record]]
molecule = "C=C(CN1C(=O)CN(C)C1=O)c1ccc(C(=O)Nc2ccccc2N)cc1"
property_measured = "TGI"
measured_result = "> 100 µM"

